B1: PDS5B (parent)
chain: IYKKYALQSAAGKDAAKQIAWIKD

Variants of: B1
Test Details: protein stability index of a GFP-peptide fusion (GPS, HEK-293T) (PSI 1-6); higher = more stable;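 note: lentivirally expressed fusions sorted by FACS into six bins by GFP to DsRed ratio, PSI derived from sequencing read proportions per bin multiplied by bin number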
Condition: c terminus: a fixed tail appended
Assay Endpoint: protein stability index
# output: bare number, no unit

Please review the following examples before continuing.
> print(dat)
   mutant.name  value.measured
1          Y2T            2.98
2          K3Y            2.19
3         A11Q            2.69
4         I22P             3.1
5         K23F            2.39

## Input Item `K17Y` : provide protein stability index
## Output 1.66

## Input Item `W21C` : provide protein stability index
## Output 3.02

## Input Item `I19V` : provide protein stability index
## Output 2.49

## Input Item `I22F` : provide protein stability index
## Output 2.29
